# experimental_target: PPM1A (protein phosphatase magnesium-dependent 1A; PP2Cα) (Homo sapiens, UniProt P35813)
# Sequence (P35813 2-382): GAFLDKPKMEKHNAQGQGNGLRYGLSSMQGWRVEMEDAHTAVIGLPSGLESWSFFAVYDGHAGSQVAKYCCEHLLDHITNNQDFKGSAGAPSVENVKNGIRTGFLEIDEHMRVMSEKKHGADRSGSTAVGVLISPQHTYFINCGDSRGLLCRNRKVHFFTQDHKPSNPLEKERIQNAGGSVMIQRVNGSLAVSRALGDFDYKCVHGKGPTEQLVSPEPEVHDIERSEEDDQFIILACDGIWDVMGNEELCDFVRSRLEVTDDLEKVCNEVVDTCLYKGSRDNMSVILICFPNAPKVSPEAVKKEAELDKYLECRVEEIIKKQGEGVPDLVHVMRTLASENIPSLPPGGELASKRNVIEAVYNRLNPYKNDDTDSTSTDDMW
# assay_summary: microscale thermophoresis
pKd: −log10 of the molar value.
reported_property: pKd

[[record]]
molecule = "CCCCCCCCCCCCCCCCOP(=O)([O-])OCC[N+](C)(C)C [MF, Miltefosine]"
reported_property = "pKd"
reading = 5.57

